Assay: Clinical study BLU-285-0107: single 100 mg oral dose, severe hepatic impairment vs matched control subjects, plasma PK
Settings: human, plasma, po, 100 mg, AUC0-240 GeoMean, Matched Control; total plasma avapritinib; single oral 100 mg
ASSAY READOUT: AUC(0-t) (ng·h/mL)

SMILES REPR: Cn1cc(-c2cc3c(N4CCN(c5ncc([C@@](C)(N)c6ccc(F)cc6)cn5)CC4)ncnn3c2)cn1
ASSAY READOUT: AUC(0-t)
VALUE REPORTED: 6030

* * *

Assay: Clinical study BLU-285-0107: single 100 mg oral dose, severe hepatic impairment vs matched control subjects, plasma PK
Details: human, plasma, po, 100 mg, AUC0-∞ GeoMean, Severe HI; total plasma avapritinib; single oral 100 mg
ASSAY READOUT: AUC(0-inf) (ng·h/mL)

COMPOUND: Cn1cc(-c2cc3c(N4CCN(c5ncc([C@@](C)(N)c6ccc(F)cc6)cn5)CC4)ncnn3c2)cn1 [Avapritinib]
VALUE REPORTED: 7860

* * *

Assay: Clinical study BLU-285-0107: single 100 mg oral dose, severe hepatic impairment vs matched control subjects, plasma PK
Conditions: human, plasma, po, 100 mg, AUC0-240 GeoMean, Severe HI; total plasma avapritinib; single oral 100 mg
ASSAY READOUT: AUC(0-t)

SMILES REPR: Cn1cc(-c2cc3c(N4CCN(c5ncc([C@@](C)(N)c6ccc(F)cc6)cn5)CC4)ncnn3c2)cn1
ASSAY READOUT: AUC(0-t)
VALUE REPORTED: 6500 ng·h/mL

* * *

Experiment: Clinical study BLU-285-0107: single 100 mg oral dose, severe hepatic impairment vs matched control subjects, plasma PK
Settings: human, plasma, po, 100 mg, Vz/F GeoMean, Matched Control; total plasma avapritinib; single oral 100 mg
ASSAY READOUT: Vd/F (L)

SMILES REPR: Cn1cc(-c2cc3c(N4CCN(c5ncc([C@@](C)(N)c6ccc(F)cc6)cn5)CC4)ncnn3c2)cn1
ASSAY READOUT: Vd/F
VALUE REPORTED: 1330

* * *

Test: Clinical study BLU-285-0107: single 100 mg oral dose, severe hepatic impairment vs matched control subjects, plasma PK
Details: human, plasma, po, 100 mg, Vz/F GeoMean, Severe HI; total plasma avapritinib; single oral 100 mg
ASSAY READOUT: Vd/F (L)

SMILES REPR: Cn1cc(-c2cc3c(N4CCN(c5ncc([C@@](C)(N)c6ccc(F)cc6)cn5)CC4)ncnn3c2)cn1
ASSAY READOUT: Vd/F
UNIT NAME: L
VALUE REPORTED: 1710

* * *

Test: Clinical study BLU-285-0107: single 100 mg oral dose, severe hepatic impairment vs matched control subjects, plasma PK
Details: human, plasma, po, 100 mg, AUCu0-24 GeoMean, Matched Control; unbound plasma avapritinib; single oral 100 mg

SMILES REPR: Cn1cc(-c2cc3c(N4CCN(c5ncc([C@@](C)(N)c6ccc(F)cc6)cn5)CC4)ncnn3c2)cn1
AUC / ng·h/mL: 15.9

* * *

Test: Clinical study BLU-285-0107: single 100 mg oral dose, severe hepatic impairment vs matched control subjects, plasma PK;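 note: severe hepatic impairment meant chronic stable cirrhosis with a Child-Pugh score of 10–15, and each such subject was paired one-to-one with a control of similar age, BMI and sex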
Details: human, plasma, po, 100 mg, t1/2 arithmetic mean, Matched Control; total plasma avapritinib; single oral 100 mg

SMILES REPR: Cn1cc(-c2cc3c(N4CCN(c5ncc([C@@](C)(N)c6ccc(F)cc6)cn5)CC4)ncnn3c2)cn1
UNIT NAME: h
half-life: 64.1
